- test-name: protein stability index of a GFP-peptide fusion (yeast GPS) (PSI 1-4); higher = more stable; sorted into four equal gates, so the index is relative within each strain
- condition-summary: doa10∆
Would you mind sorting the entries by protein stability index according to these classes? low (below 2), intermediate (2 to below 3), high (3 or more)

- AFDKHMNLVLNECIEER [SMB1]: intermediate

(Q) Just checking, what class would you give LENMPHPWEQAKEVKVL [PRP8] here?
(A) intermediate

(Q) Please report the category associated with EDIVGALRRRVGPSEQN [REC8] , nothing else.
(A) intermediate

---

- test-name: protein stability index of a GFP-peptide fusion (yeast GPS) (PSI 1-4); higher = more stable; sorted into four equal gates, so the index is relative within each strain
- condition-summary: san1∆
Class Fulfilled: protein stability index at least 2. Class Not fulfilled: protein stability index below 2.

- KAAFEDLKSKGLIPADA [FAS1]: Fulfilled

(Q) Could you tell me if the measured protein stability index of GKGHLVGRLASVVAKQL [RPL16A] reaches 2 or more?
(A) Not fulfilled

(Q) Could you tell me if the measured protein stability index of TTTTTTTNNNNTNNNNT [SWI1] reaches 2 or more?
(A) Fulfilled

---

- test-name: protein stability index of a GFP-peptide fusion (yeast GPS) (PSI 1-4); higher = more stable; sorted into four equal gates, so the index is relative within each strain
- condition-summary: doa10∆
# maps each entry to its protein stability index

Use these answered entries as a reference point.
• MEYLSGGEKTVAALALL [SMC1] = 2.2
• QRRCLHCGALNGVVKKA [RPO31] = 2.35
• DTPTSGKHNLTIWCVCD [BRR2] = 3.05
• RNVLSASLDGTIRLWEC [RPN14] = 2.95

(Q) So what does the record say about protein stability index for WKYEDVVAKLEDKRKVR [RPL16B] ?
(A) 3.12

(Q) Requested read-out: protein stability index. Entry: TAIAHSIREQVHMYHKS [SNF5]
(A) 1.89

---

- test-name: protein stability index of a GFP-peptide fusion (yeast GPS) (PSI 1-4); higher = more stable; sorted into four equal gates, so the index is relative within each strain
- condition-summary: pdr5∆
metric: protein stability index
Give the figure by itself; no unit, no explanation.

* IRPTELRLPFSAAMSID [PRP8] | 1.98
* LAVTNLLIISCIIFITF [YML031W/NDC1] | 1.53

(Q) Tell me the measured protein stability index of KVDNDLRIELQSVYNDE [SRB8] , please.
(A) 3.29

(Q) Given the sequence NIEEMARVILYLKNVLF [SIN4] , what is its reported protein stability index?
(A) 2.31

(Q) For NKDMIKNLVKVLESRVN [CSN12] , what is its reported protein stability index?
(A) 2.63

(Q) # query: protein stability index of entry DNEDSDNLFGETESSVS [SWI3]
(A) 3.07

(Q) Using the record for NDVTRRTVKNILVSVLP [CSL4] , report its protein stability index.
(A) 3.12

(Q) Which protein stability index reading was recorded for the sequence HYNDSQQLRTWKRQISY [SRB8] ?
(A) 3.39

(Q) Consider the sequence shown here: RIPFSERKLKFSNRFLP [FAS1] What is its recorded protein stability index?
(A) 1.17

(Q) # query: protein stability index of entry EIGILDHVDGSSEFVSQ [RRP46]
(A) 2.01

---

Parameter protein stability index: see the listing below.
- test-name: protein stability index of a GFP-peptide fusion (yeast GPS) (PSI 1-4); higher = more stable; sorted into four equal gates, so the index is relative within each strain
- condition-summary: pdr5∆
Please respond with just the number, no unit label.

# annotated cases, reported protein stability index shown
• GGALDNPFEDDMDGVDF [BRN1] = 3.32
• PGPYPNEQAARAANQGA [CYT1] = 2.68
• KLHFKDTKPFLNKDSTN [NUT1] = 2.23
• YTAVDTAKLQMRRFILG [RPN14] = 1.47

(Q) Need protein stability index, item NRERFISKLFLRGDSVI [SMD2]
(A) 1.65

(Q) Fill in: protein stability index of NILPFLWGPHGLNSDAE [ECM29] is ___
(A) 2.71

(Q) Dear colleague, I am looking for the recorded protein stability index of the following sequence: PERWLPLRDRSTYRPKK [SRP72]
(A) 3.05

(Q) State the recorded protein stability index for this entry: YKHIDASGSINRKVLQA [RPS19A]
(A) 3.27

(Q) Entry DNNTASNMLGSNEDVMM [RPB3] has what protein stability index?
(A) 2.43

(Q) Which protein stability index is listed for SYIGTIIVKDKSNDSEG [POP1] ?
(A) 1.44

(Q) If you can, please state the reported protein stability index value of SNIMSDSKKIKVDSPDD [GAL11] .
(A) 2.73

(Q) Given NKINSRNSWNFALIDYF [BRN1] , state its recorded protein stability index.
(A) 1.27

---

Item-by-item account of protein stability index
- test-name: protein stability index of a GFP-peptide fusion (yeast GPS) (PSI 1-4); higher = more stable; sorted into four equal gates, so the index is relative within each strain
- condition-summary: doa10∆

Solved entries (count: 5):
* SWEEGTRQSSRNFDTHE [MCD1] | 3.26
* ILNELEVFIGRVKDQDG [YJR042W/NUP85] | 3.06
* LESGKETALEFLEKEKQ [SMC4] | 3.62
* ETLVLDEADKMIDLGFE [PRP28] | 3.18
* NAEAKGLDATKLYVSHI [RPL17A] | 3.23

(Q) Request the reported protein stability index associated with RFMKGRRSKQLINLAKT [RPC82]
(A) 2.56

---

protein stability index overview
- test-name: protein stability index of a GFP-peptide fusion (yeast GPS) (PSI 1-4); higher = more stable; sorted into four equal gates, so the index is relative within each strain
- condition-summary: pdr5∆
The response must contain the number and no unit.

Below, each entry is followed by its recorded protein stability index result.
• LRKSRETVKLPRVSNQS [RRI2] = 3.42
• PLSESLRLVDDDENNPS [RRP6] = 3.12
• LHQYYGDDESKIPAVEY [FAS1] = 2.75
• FLQSQRQQQQRSILQSL [SWI1] = 1.92
• KFFTQSNLEKLPKYKEK [MED7] = 2.7
• FGQDVSPMINSTSSGKV [SNM1] = 3.32

(Q) I have this sequence here, WMMNGALQILNSGIIPG [FAS2] , and I need its recorded protein stability index.
(A) 1.86

(Q) Can you look up the measured protein stability index of SATVKTSDLLGSHLSET [ECM29] for me?
(A) 2.98

(Q) Any idea what its protein stability index is? The sequence is DANLLEEGETSRPLKKV [SWI3]
(A) 3.45

(Q) Returns the measured protein stability index for the input sequence. Input: NNSALSNVNSDIYFKLK [RPT3]
(A) 2.96

(Q) What value of measured protein stability index is listed for LPSWSLGKWYSKEDYET [ARP7] ?
(A) 1.12

(Q) Which protein stability index value belongs to VDTSTELESMLEDLKNT [RRP6] ?
(A) 3.03

(Q) Please give the measured protein stability index for this sequence: PFTNEAHMWPRVHDQPL [POP3]
(A) 1.36

(Q) Endpoint output: protein stability index of LANNVESKLRDDLERLK [RPS18A] . Value?
(A) 3.27

(Q) // returns reported protein stability index for input LVSANNDNNSPHTPVTR [YLR018C/POM34]
(A) 2.85

(Q) Can you look up the measured protein stability index of KNQHRAASWYGSFNEMK [RMP1] for me?
(A) 3.21

(Q) Fill blank: measured protein stability index of the sequence FKGHSHIVQDCTLTADG [ASC1] is ____.
(A) 2.04

(Q) What does the data say about its protein stability index? Entry: YGKLRNGMFCQVPSSLI [RRP4]
(A) 2

(Q) Data request, read-out protein stability index, for NNRMGSYDCTGVNELAP [POP1]
(A) 2.42

(Q) Field request: protein stability index | item: LLRSRLATRRVLQEYRL [RPO21]
(A) 2.07

(Q) Which protein stability index reading was recorded for the sequence VNQDKANNASQITPTVP [SNF12] ?
(A) 3.19

(Q) Which protein stability index is reported for this sequence? FNNEKETEKFALERNWP [RPN12]
(A) 2.63

(Q) Can you share its protein stability index? I mean this sequence: FRISLGLPVGAIMNCAD [RPL23A]
(A) 1.9

(Q) Returns the measured protein stability index for the input sequence. Input: LVQLKKFSDLKFILQIL [YML103C/NUP188]
(A) 1.91

(Q) So what's the measured protein stability index for this one? LKSLYSFFNISPDAPKE [SIN4]
(A) 1.38

(Q) Query: protein stability index; subject: DITGIRDVSDDVFDTLA [GRR1]
(A) 3.04

The values you see were collected from the supplement of paper PMC9732359.
